TARGET_OR_SYSTEM: CB2 (Homo sapiens)
EXPERIMENT_SUMMARY: Radioligand displacement assay on CB2 receptor
Format: binding
Parameters: purchased Perkin Elmer RBXCB2M
ASSAY_CONDITIONS: summary of Table 3
MEASUREMENT_TYPE: affinity towards CB2 (in words)

• CCCCCCC/C=C/C=C/C(=O)NCCC(C)C = moderate affinity
• CCCCCCC/C=C/C=C/C(=O)N1CCCCC1 = moderate affinity
• CCCCCCC/C=C/C=C/C(=O)NCC(C)CC (racemic) = moderate affinity

* * *

Give FAAH inhibition at 1 µM for every item shown.
TARGET_OR_SYSTEM: human recombinant Fatty acid amide hydrolase (Homo sapiens, UniProt O00519)
Sequence (O00519 whole entry): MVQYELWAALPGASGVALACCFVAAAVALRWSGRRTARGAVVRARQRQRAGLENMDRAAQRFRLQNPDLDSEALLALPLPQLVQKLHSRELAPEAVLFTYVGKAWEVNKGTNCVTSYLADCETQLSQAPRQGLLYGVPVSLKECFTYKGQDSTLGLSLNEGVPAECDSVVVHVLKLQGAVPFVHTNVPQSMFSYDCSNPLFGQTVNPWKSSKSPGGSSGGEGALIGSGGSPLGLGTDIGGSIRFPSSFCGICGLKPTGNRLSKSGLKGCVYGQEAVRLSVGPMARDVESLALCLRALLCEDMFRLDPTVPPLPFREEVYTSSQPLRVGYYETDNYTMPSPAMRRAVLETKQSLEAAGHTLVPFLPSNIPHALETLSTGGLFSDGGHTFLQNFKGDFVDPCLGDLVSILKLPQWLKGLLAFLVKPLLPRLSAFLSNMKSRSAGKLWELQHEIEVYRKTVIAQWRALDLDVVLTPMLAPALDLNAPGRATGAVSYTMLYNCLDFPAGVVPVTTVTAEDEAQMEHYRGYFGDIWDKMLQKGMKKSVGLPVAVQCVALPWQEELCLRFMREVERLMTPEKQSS
EXPERIMENT_SUMMARY: Inhibition of human recombinant FAAH, fluorometric method (assay G)
Assay type: biochemical
ASSAY_CONDITIONS: human recombinant enzyme, AMC-anandamide substrate (assay G)

Examples with their reported FAAH inhibition at 1 µM follow.
* CCCCCCC/C=C/C=C/C(=O)NCC(C)O (stereo not drawn) | 45 % of control
* CCCCCCC/C=C/C=C/C(=O)NCCc1ccnc(OC)c1 | 6 % of control
* CCCCCCC/C=C/C=C/C(=O)NCc1ccccc1 | 2 % of control

Kindly give each listed record's FAAH inhibition at 1 µM.
1. CCCCCCC/C=C/C=C/C(=O)NC(CO)Cc1cccs1 (stereo not drawn)
2. CCCCCCC/C=C/C=C/C(=O)NCCO
3. CCCCCCC/C=C/C=C/C(=O)Nc1ccc(C2=NCCS2)cc1

Response given:
25 % of control
9 % of control
9 % of control

* * *

TARGET_OR_SYSTEM: CB1 (Homo sapiens, UniProt P21554)
Construct: purchased Perkin Elmer RBHCB1M
Sequence (P21554 whole entry): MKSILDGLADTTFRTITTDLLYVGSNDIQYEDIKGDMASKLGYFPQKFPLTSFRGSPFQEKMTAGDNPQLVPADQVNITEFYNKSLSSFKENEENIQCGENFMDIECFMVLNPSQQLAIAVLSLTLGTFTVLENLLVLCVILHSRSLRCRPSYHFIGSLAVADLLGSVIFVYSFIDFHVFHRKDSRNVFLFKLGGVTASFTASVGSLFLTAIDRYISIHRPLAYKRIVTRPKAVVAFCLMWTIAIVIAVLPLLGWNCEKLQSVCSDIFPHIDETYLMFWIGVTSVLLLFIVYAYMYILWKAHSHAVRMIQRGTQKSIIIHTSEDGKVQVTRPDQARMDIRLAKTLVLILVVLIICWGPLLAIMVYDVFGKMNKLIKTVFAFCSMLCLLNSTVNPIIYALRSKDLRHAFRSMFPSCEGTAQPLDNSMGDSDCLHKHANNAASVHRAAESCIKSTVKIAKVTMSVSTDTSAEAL
EXPERIMENT_SUMMARY: Radioligand displacement assay on CB1 receptor
Assay type: binding
ASSAY_CONDITIONS: summary of Table 3
MEASUREMENT_TYPE: affinity towards CB1 (in words)

- CCCCCCC/C=C/C=C/C(=O)NCC(C)C [Compound A, (2E,4E)-N-isobutyldodeca-2,4-diene amide]: moderate affinity
- CCCCCCC/C=C/C=C/C(=O)NCC(C)CC (racemic): moderate affinity
- CCCCCCC/C=C/C=C/C(=O)N1CCCCC1: moderate affinity

* * *

TARGET_OR_SYSTEM: CB1 (Homo sapiens)
Construct: purchased Perkin Elmer RBHCB1M
EXPERIMENT_SUMMARY: Radioligand displacement assay on CB1 receptor
Assay type: binding
pKi: −log10 of the molar value.
Give measured pKi for each item. Keep answers brief.

Below: 3 compounds and their reported pKi.
- CCCCCCC/C=C/C=C/C(=O)NCC(C)CC (racemic): 5.82
- CCCCCCC/C=C/C=C/C(=O)NCCC(C)C: < 4.70
- CCCCCCC/C=C/C=C/C(=O)NCCO: < 4.70

Challenge: Item CCCCCCC/C=C/C=C/C(=O)NCCc1cccc(OC)c1 with CB1 (Homo sapiens) - pKi?
Response given: < 4.70

* * *

TARGET_OR_SYSTEM: CB2 (Homo sapiens, UniProt P34972)
Sequence (P34972 whole entry): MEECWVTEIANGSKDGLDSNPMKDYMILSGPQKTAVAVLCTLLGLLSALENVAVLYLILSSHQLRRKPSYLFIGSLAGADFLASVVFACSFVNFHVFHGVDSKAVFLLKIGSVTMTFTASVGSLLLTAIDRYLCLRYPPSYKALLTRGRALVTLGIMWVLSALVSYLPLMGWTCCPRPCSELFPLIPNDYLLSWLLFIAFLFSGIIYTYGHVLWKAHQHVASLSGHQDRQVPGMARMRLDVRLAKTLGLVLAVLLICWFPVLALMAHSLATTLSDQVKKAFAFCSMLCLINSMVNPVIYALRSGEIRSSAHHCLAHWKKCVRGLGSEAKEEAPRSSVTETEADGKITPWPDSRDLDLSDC
EXPERIMENT_SUMMARY: Radioligand displacement assay on CB2 receptor
Assay type: binding
Set-up: purchased Perkin Elmer RBXCB2M
ASSAY_CONDITIONS: displacement of 0.11 nM [3H]CP55,940; membrane recombinantly over-expressing CB2; read-out: Receptor affinity Ki CB2
MEASUREMENT_TYPE: pKi
Answers are plain numbers, as −log10 of the molar value.

These recorded examples may help you get a feel for the data.
- CCCCCCC/C=C/C=C/C(=O)NCCc1cccc(OC)c1: 5.03
- CCCCCCC/C=C/C=C/C(=O)N1CCCCC1: 5.58

Now consider a different compound.
Challenge: What measured pKi goes with CCCCCCC/C=C/C=C/C(=O)NCC(C)C [Compound A, (2E,4E)-N-isobutyldodeca-2,4-diene amide] ?
Response given: 7.22

Reference for the values: patent EP2435019B1
